# Tested on: SK-MEL-28 melanoma
# METHOD_NOTES: NCI-60 one-dose screen, 48 h (100 = growth as untreated, 0 = no growth, -100 = all killed)
# CONDITION_CONTEXT: 10 µM unless noted
This is part of a sample that, as a whole, favours compounds with a hit. Of some 83,000 tested, about 20% had one in any assay.
Each entry gets False if its growth stays under 60%, and True if its growth is 60% or above.

Previously resolved entries follow.
chemical_string=COc1ccc(OC)c(-c2cc(-c3ccc(Cl)cc3)c3c(N)c(C(=O)c4ccc(Cl)cc4)sc3n2)c1 answer_label=True
chemical_string=Cn1nc(CC#N)c2c(=N)n(N)cnc21 answer_label=True
chemical_string=CC(=O)Nc1cccc(-c2ccc3c(c2)NC(=O)/C3=C\c2ccc[nH]2)c1 answer_label=True
chemical_string=C=CCN1C(=O)/C(=C/C(=O)OC)S/C1=N\NC(=O)c1cc2ccc1/C=C\c1ccc(cc1)/C=C\2 answer_label=True
chemical_string=COc1cccc2c1c1nc3cc(C)c(C)cc3nc1n2CCN(C)C answer_label=False
chemical_string=CNC(=O)c1cccc(Cn2nc(C)c(NC(=O)c3ccc(COc4ccc(C(F)(F)F)cc4C)cc3)c2C)c1 answer_label=True
chemical_string=Cc1ccc(-n2c3c(c(-c4ccccc4)c2-c2ccccc2)C2=NCCN2C=N3)cc1 answer_label=True
chemical_string=O=C(CCN1CCCC1)Nc1ccc2c(Nc3ccc(F)cc3)c3ccccc3nc2c1 answer_label=False
chemical_string=CCc1ccc(CNc2ccc(N3CCOCC3)c(C(=O)O)c2)cc1 answer_label=True
chemical_string=COc1cc2cc(Oc3cccc(NC(=O)Nc4cc(C(F)(F)F)cc(C(F)(F)F)c4)c3)c(C)nc2cc1OC answer_label=False

Now let's try a different one.
Ask | API: above_or_equal(metric=growth, cutoff=60%) for item O=S(=O)(NCCCNc1nccc(-c2c(-c3cccc(O)c3)nc3occn23)n1)c1ccc(Cl)cc1
Reply | False
